All figures here come from the supplement of paper PMC6135742.

# System: jimpy (Plp1 jimpy) mouse iPSC-derived oligodendrocyte progenitor cells;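 also: 10 µM single dose with 3-day oligodendrocyte differentiation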
# Assay procedure: MBP+ mature oligodendrocyte number relative to DMSO vehicle control (SDs above negative control mean); higher = more surviving jimpy oligodendrocytes (rescue)
# Condition label: 10 µM; 3 days
Counter-ions that a name gives are not always drawn. Whole data set: some 2,600 compounds, median “MBP+ mature oligodendrocyte number relative to DMSO vehicle control” near -0.34, cut for the highest 2% near 13. The full list was thinned out, with the highest values kept by preference.
MBP+ mature oligodendrocyte number for assorted compounds

[
  {
    "Compound": "O=C(O)CCCCC1CCSS1 (racemic) [(±)-alpha-Lipoic Acid]",
    "Censor symbol": "=",
    "MBP+ mature oligodendrocyte number": -1.6
  },
  {
    "Compound": "N=C(N)SCCc1c[nH]cn1 [Imetit dihydrobromide]",
    "Censor symbol": "=",
    "MBP+ mature oligodendrocyte number": -0.363
  },
  {
    "Compound": "O=C(NC(NC(=S)Nc1ccc(F)c([N+](=O)[O-])c1)C(Cl)(Cl)Cl)C(c1ccccc1)c1ccccc1 (stereo not given)",
    "Censor symbol": "=",
    "MBP+ mature oligodendrocyte number": -5.76
  },
  {
    "Compound": "Clc1ccc(N2CCN(Cc3cc4ccccn4n3)CC2)cc1",
    "Censor symbol": "=",
    "MBP+ mature oligodendrocyte number": 0.61
  },
  {
    "Compound": "COc1cc(N)c(Cl)cc1C(=O)OCCN1CCCCC1",
    "Censor symbol": "=",
    "MBP+ mature oligodendrocyte number": -3.81
  },
  {
    "Compound": "O=C1[C@H](CC[C@H](O)c2ccc(F)cc2)[C@@H](c2ccc(O)cc2)N1c1ccc(F)cc1",
    "Censor symbol": "=",
    "MBP+ mature oligodendrocyte number": 2.95
  },
  {
    "Compound": "CC[n+]1c(/C=C/C=C2/N(C)c3ccccc3C2(C)C)sc2ccccc21",
    "Censor symbol": "<",
    "MBP+ mature oligodendrocyte number": -4.47
  },
  {
    "Compound": "O=C1CCc2ccc(OCCCCN3CCN(c4cccc(Cl)c4Cl)CC3)cc2N1",
    "Censor symbol": "=",
    "MBP+ mature oligodendrocyte number": 5.11
  },
  {
    "Compound": "COc1ccc(CNCc2cccc3ccccc23)cc1",
    "Censor symbol": "=",
    "MBP+ mature oligodendrocyte number": -1.56
  },
  {
    "Compound": "CC(=O)[C@H]1CC[C@H]2[C@@H]3CC=C4C[C@@H](OS(=O)(=O)O)CC[C@]4(C)[C@H]3CC[C@]12C [Pregnenolone sulfate sodium]",
    "Censor symbol": "=",
    "MBP+ mature oligodendrocyte number": 0.467
  },
  {
    "Compound": "Cc1ccc(F)c(NC(=O)Nc2ccc(-c3cccc4[nH]nc(N)c34)cc2)c1",
    "Censor symbol": "=",
    "MBP+ mature oligodendrocyte number": -5.74
  },
  {
    "Compound": "CCCCC[C@H](O)/C=C/[C@H]1[C@H](O)CC(=O)[C@@H]1CCCCCCC(=O)O",
    "Censor symbol": "=",
    "MBP+ mature oligodendrocyte number": 0.793
  },
  {
    "Compound": "COc1ccc(Cl)cc1NC(=O)Nc1cc(C)nc2ccccc12",
    "Censor symbol": "=",
    "MBP+ mature oligodendrocyte number": -4.52
  },
  {
    "Compound": "C[C@H](Oc1cc(-c2cnn(C3CCNCC3)c2)cnc1N)c1c(Cl)ccc(F)c1Cl [(S)-crizotinib]",
    "Censor symbol": "=",
    "MBP+ mature oligodendrocyte number": -4.58
  },
  {
    "Compound": "CSc1c(C)c(SC)n2ccncc12 [Oltipraz metabolite M2]",
    "Censor symbol": "=",
    "MBP+ mature oligodendrocyte number": -2.35
  },
  {
    "Compound": "CC(=O)[C@H]1CC[C@H]2[C@@H]3CC=C4C[C@@H](O)CC[C@]4(C)[C@H]3CC[C@]12C",
    "Censor symbol": "=",
    "MBP+ mature oligodendrocyte number": -3.89
  },
  {
    "Compound": "CCOc1cc(N)c(Cl)cc1C(=O)NCC1CN(Cc2ccc(F)cc2)CCO1 (stereo not given) [Mosapride Citrate]",
    "Censor symbol": "=",
    "MBP+ mature oligodendrocyte number": 23
  },
  {
    "Compound": "C[C@H](NC(=O)C(=O)Nc1ccccc1C(C)(C)C)C(=O)N[C@@H](CC(=O)O)C(=O)COc1c(F)c(F)cc(F)c1F",
    "Censor symbol": "=",
    "MBP+ mature oligodendrocyte number": 10.3
  },
  {
    "Compound": "COC(=O)C1=CO[C@@H](O)[C@@H]2C(CO)=CC[C@H]12",
    "Censor symbol": "=",
    "MBP+ mature oligodendrocyte number": 3.27
  },
  {
    "Compound": "CN(CC[C@@H](Oc1ccc(C(F)(F)F)cc1)c1ccccc1)CC(=O)[O-].[Li+]",
    "Censor symbol": "=",
    "MBP+ mature oligodendrocyte number": 0.588
  },
  {
    "Compound": "O=C(/C=C/c1ccc(O)cc1)CC(=O)/C=C/c1ccc(O)cc1",
    "Censor symbol": "=",
    "MBP+ mature oligodendrocyte number": 0.659
  },
  {
    "Compound": "FC(F)(F)c1ccccc1-n1ccnc1 [1-[2-(Trifluoromethyl)phenyl]imidazole]",
    "Censor symbol": "=",
    "MBP+ mature oligodendrocyte number": -0.176
  },
  {
    "Compound": "CC(C)CCN1c2nc(Nc3cc(F)c(O)c(F)c3)ncc2N(C)C(=O)C1C (stereo not given)",
    "Censor symbol": "<",
    "MBP+ mature oligodendrocyte number": -6.01
  },
  {
    "Compound": "O=C(CCCN1CCC(O)(c2ccc(Cl)cc2)CC1)c1ccc(F)cc1",
    "Censor symbol": "=",
    "MBP+ mature oligodendrocyte number": 2.36
  },
  {
    "Compound": "NCCNS(=O)(=O)c1cccc2c(Cl)cccc12 [A3 hydrochloride]",
    "Censor symbol": "=",
    "MBP+ mature oligodendrocyte number": -2.82
  },
  {
    "Compound": "CN(C/C=C/C#CC(C)(C)C)Cc1cccc2ccccc12 [Terbinafine HCl]",
    "Censor symbol": "=",
    "MBP+ mature oligodendrocyte number": 4.54
  },
  {
    "Compound": "CN1CC(=O)N=C1NC(=O)Nc1cccc(Cl)c1",
    "Censor symbol": "=",
    "MBP+ mature oligodendrocyte number": -0.794
  },
  {
    "Compound": "c1ccc(-c2ccc(C(c3ccccc3)n3ccnc3)cc2)cc1 (stereo not given)",
    "Censor symbol": "=",
    "MBP+ mature oligodendrocyte number": 52.3
  },
  {
    "Compound": "N#CC1(c2ccc(NC(=O)c3cccnc3NCc3ccncc3)cc2)CCCC1",
    "Censor symbol": "=",
    "MBP+ mature oligodendrocyte number": 2.86
  },
  {
    "Compound": "O=C1Cc2cc(CCN3CCN(c4nsc5ccccc45)CC3)c(Cl)cc2N1 [Ziprasidone HCl]",
    "Censor symbol": "=",
    "MBP+ mature oligodendrocyte number": 21.9
  },
  {
    "Compound": "CC[C@H](NC(=O)[C@H](C)NC)C(=O)N1C[C@@H](O)C[C@H]1Cc1c(-c2[nH]c3cc(F)ccc3c2C[C@@H]2C[C@H](O)CN2C(=O)[C@H](CC)NC(=O)[C@H](C)NC)[nH]c2cc(F)ccc12",
    "Censor symbol": "=",
    "MBP+ mature oligodendrocyte number": -5.76
  },
  {
    "Compound": "CCN(CC)CCNC(=O)c1cc(Cl)c(N)cc1OC [Metoclopramide hydrochloride]",
    "Censor symbol": "=",
    "MBP+ mature oligodendrocyte number": 0.304
  },
  {
    "Compound": "CCCCC(F)(F)[C@@]1(O)CC[C@H]2[C@@H](CC(=O)[C@@H]2CCCCCCC(=O)O)O1",
    "Censor symbol": "=",
    "MBP+ mature oligodendrocyte number": 25.2
  },
  {
    "Compound": "CC(=Cc1ccc(C(=O)O)cc1)c1ccc2c(c1)C(C)(C)CCC2(C)C",
    "Censor symbol": "=",
    "MBP+ mature oligodendrocyte number": 0.539
  },
  {
    "Compound": "O=C(/C=C/c1ccc(CN(CCO)CCc2c[nH]c3ccccc23)cc1)NO",
    "Censor symbol": "<",
    "MBP+ mature oligodendrocyte number": -6.7
  }
]
